# assay.name: Cell Viability - BJ (AID 421);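 also: cells exposed to compound for 40 hours at 37 °C before readout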
# measurement.context: BJ fibroblast viability, qHTS
# Description: NIH Chemical Genomics Center [NCGC] NIH Molecular Libraries Screening Centers Network [MLSCN] National Institutes of Environmental Health Sciences [NIEHS] National Toxicology Program [NTP] We have developed a 1536-well cell-based assay for quantitative high throughput screening (qHTS) against a number of cell lines to determine in vitro cytotoxicity of small molecules. […] 8. Detection; Luminescence; Viewlux plate reader […]
Records with an inconclusive call do not appear. Calls of active or inactive are those of the source. Calls follow the shape of the full dose curve.
Outcomes: T for active, F for inactive

>>> answer_label("O=C(CCl)c1ccccc1")
"T"
>>> answer_label("O=[N+]([O-])c1cc(C(F)(F)F)cc([N+](=O)[O-])c1Cl")
"F"
>>> answer_label("OC(c1ccc(Cl)cc1)(c1ccc(Cl)cc1)C(Cl)(Cl)Cl")
"F"
>>> answer_label("FC(F)(F)c1ccc(Cl)cc1")
"F"
>>> answer_label("CN(C)c1ccc(N=O)cc1")
"F"
>>> answer_label("Oc1c(Br)c(Br)c(Br)c(Br)c1Br")
"F"
>>> answer_label("CC(C)CC(C)Nc1ccc(Nc2ccccc2)cc1 (stereo not drawn)")
"F"
>>> answer_label("C[C@@H]1CC[C@@]2(OC1)O[C@H]1[C@@H](O)[C@H]3[C@@H]4CC[C@H]5C[C@@H](O[C@@H]6O[C@H](CO)[C@H](O[C@@H]7O[C@H](CO)[C@@H](O)[C@H](O[C@@H]8OC[C@@H](O)[C@H](O)[C@H]8O)[C@H]7O[C@@H]7O[C@H](CO)[C@@H](O)[C@H](O[C@@H]8O[C@H](CO)[C@@H](O)[C@H](O)[C@H]8O)[C@H]7O)[C@H](O)[C@H]6O)[C@H](O)C[C@]5(C)[C@H]4CC[C@]3(C)[C@H]1[C@@H]2C")
"T"

---

# assay.name: Cell Viability - LYMP2-002 (AID 977);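 also: compound exposure lasted 24 h at 37 °C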
# measurement.context: LYMP2-002 lymphoblastoid cell viability, qHTS; series mostly up to 92.2 µM
Inconclusive results are not listed. Active and inactive are the calls of the source. The call rests on the fitted dose curve; in most records, active means well fitted cell-killing curve with a large enough effect; inconclusive means small, poorly fitted or top-dose-only effect; inactive means flat fitted curve, though single readings scatter.
Outcomes: class 1 = active, class 0 = inactive

>>> answer_label("O=Nc1ccc(Nc2ccccc2)cc1")
"class 1"
>>> answer_label("N#CC(Cl)Cl")
"class 1"
>>> answer_label("CC/C(=C(\\c1ccccc1)c1ccc(OCCN(C)C)cc1)c1ccc(O)cc1")
"class 1"
>>> answer_label("CC(C)CC(C)Nc1ccc(Nc2ccccc2)cc1 (centres undefined)")
"class 1"
>>> answer_label("O=C(O)C1C(C(=O)O)C2(Cl)C(Cl)=C(Cl)C1(Cl)C2(Cl)Cl (centres undefined)")
"class 0"
>>> answer_label("ClC1=C(Cl)C(Cl)(Cl)C(Cl)=C1Cl")
"class 1"
>>> answer_label("Oc1c(Br)c(Br)c(Br)c(Br)c1Br")
"class 0"
>>> answer_label("[CH3][Hg][Cl]")
"class 1"
>>> answer_label("CCCCCCCCn1sccc1=O")
"class 1"

---

# Test system: CP329
# assay.name: qHTS profiling for inhibitors of Plasmodium falciparum proliferation (AID 504749); also: nearly all actives have a fitted effect of over 60% in size
# measurement.context: P. falciparum in erythrocytes, SYBR Green DNA, 72 h; series mostly up to 28.7 µM
Inconclusive results are not listed. Active and inactive are the calls of the source. The call rests on the fitted dose curve; in most records, active means well fitted inhibition curve with a large enough effect; inconclusive means small, poorly fitted or top-dose-only effect; inactive means flat fitted curve, though single readings scatter.
Outcomes: YES = active, NO = inactive

>>> answer_label("NC(Cc1ccc(Oc2cc(I)c(O)c(I)c2)c(I)c1)C(=O)O (stereo not drawn)")
"NO"
>>> answer_label("C=C1CC2C(CC[C@]3(C)C(=O)CCC23)[C@]2(C)C=CC(=O)C=C12 (stereo partly drawn)")
"NO"
>>> answer_label("CCCC(C)C1(CC)C(=O)NC(=S)NC1=O (stereo not drawn)")
"NO"
>>> answer_label("Cc1cc(C)cc(C(=O)OC2CC3CCC(C2)N3C)c1 (stereo not drawn)")
"NO"
>>> answer_label("CCCCCCC(=O)O[C@H]1CC[C@H]2[C@@H]3CCC4CC(=O)C=C(C)[C@]4(C)[C@H]3CC[C@]12C (stereo partly drawn)")
"NO"
>>> answer_label("C=CC[N+]1(C)CCC23c4c5ccc(O)c4O[C@H]2C(=O)CC[C@@]3(O)C1C5 (stereo partly drawn)")
"NO"
>>> answer_label("CCC/C=C/C=C/C(=O)OC1/C(=C/C(=O)OC)CC2CC(C(C)O)OC(=O)CC(O)CC3CC(OC(C)=O)C(C)(C)C(O)(CC4C/C(=C/C(=O)OC)CC(/C=C\\C(C)(C)C1(O)O2)O4)O3 (stereo not drawn)")
"YES"
>>> answer_label("CC(=O)O[C@H]1C[C@H](O[C@H]2[C@@H](O)CC(O[C@H]3[C@@H](O)C[C@H](O[C@H]4CC[C@@]5(C)[C@H](CC[C@@H]6[C@@H]5CC[C@]5(C)[C@@H](C7=CC(=O)OC7)CC[C@]65O)C4)O[C@@H]3C)O[C@@H]2C)O[C@H](C)[C@H]1O[C@@H]1O[C@H](CO)[C@@H](O)[C@H](O)[C@H]1O (stereo partly drawn)")
"NO"

---

# Tested on: CP191
# assay.name: qHTS profiling for inhibitors of Plasmodium falciparum proliferation (AID 504749); also: nearly all actives have a fitted effect of over 60% in size
# measurement.context: P. falciparum in erythrocytes, SYBR Green DNA, 72 h; series mostly up to 28.7 µM
Inconclusive results are not listed. Calls of active or inactive are those of the source. Calls come from the whole dose curve; as a rule, active = well fitted inhibition curve with a large enough effect; inconclusive = small, poorly fitted or top-dose-only effect; inactive = flat fitted curve, though single readings scatter.
Outcomes: True for active, False for inactive

>>> answer_label("O=[N+]([O-])OC1CO[C@H]2C(O[N+](=O)[O-])COC12 (stereo partly specified)")
"False"
>>> answer_label("C[C@]12CCC3C(CCC4=C(Cl)C(=O)CC[C@@]43C)C1CCC2O (stereo partly specified)")
"False"
>>> answer_label("CN(C)[C@@H](Cc1ccccc1)c1ccccc1")
"False"
>>> answer_label("CC(Cc1ccccc1)N(C)C (stereo unspecified)")
"False"
>>> answer_label("CC(=O)Oc1ccc2c3c1OC1[C@@H](OC(C)=O)C=C[C@H]4[C@H](C2)N(C)CC[C@]314 (stereo partly specified)")
"False"
>>> answer_label("CC(CO)NC(=O)C1C=C2c3cccc4[nH]cc(c34)CC2N(C)C1 (stereo unspecified)")
"False"
>>> answer_label("CCCC(C)C1(CC)C(=O)NC(=S)NC1=O (stereo unspecified)")
"False"
>>> answer_label("COC(=O)C1C(OC(=O)c2ccccc2)CC2CCC1N2C (stereo unspecified)")
"False"
>>> answer_label("C=CC[N+]1(C)CCC23c4c5ccc(O)c4O[C@H]2C(=O)CC[C@@]3(O)C1C5 (stereo partly specified)")
"False"
>>> answer_label("Nc1nc(O)c(-c2ccccc2)o1")
"False"
>>> answer_label("C#CCN1CC(=O)N(COC(=O)[C@@H]2[C@@H](C=C(C)C)C2(C)C)C1=O")
"False"
>>> answer_label("CC(C)CCC(=O)OC1CCC2C3CCC4=CC(=O)CC[C@]4(C)C3CC[C@]12C (stereo partly specified)")
"True"
>>> answer_label("CCCCCCC(=O)O[C@H]1CC[C@H]2[C@@H]3CCC4CC(=O)C=C(C)[C@]4(C)[C@H]3CC[C@]12C (stereo partly specified)")
"False"
>>> answer_label("CC(=O)[C@H]1CC[C@H]2C3CC[C@H]4C[C@H](O)CC[C@]4(C)C3CC[C@]12C (stereo partly specified)")
"False"
>>> answer_label("COC(C(=O)C(O)C(C)O)C1Cc2cc3cc(OC4CC(OC5CC(O)C(OC)C(C)O5)C(OC(C)=O)C(C)O4)c(C)c(O)c3c(O)c2C(=O)C1OC1CC(OC2CC(OC3CC(C)(O)C(OC(C)=O)C(C)O3)C(O)C(C)O2)C(O)C(C)O1 (stereo unspecified)")
"True"
>>> answer_label("CCOC(=O)c1cncn1[C@@H](C)c1ccccc1")
"False"
>>> answer_label("OCC(O)[C@H]1O[C@@H]2O[C@H](C(Cl)(Cl)Cl)O[C@@H]2[C@H]1O (stereo partly specified)")
"False"
>>> answer_label("NC(Cc1ccc(Oc2cc(I)c(O)c(I)c2)c(I)c1)C(=O)O (stereo unspecified)")
"False"
>>> answer_label("C[C@H](N)Cc1ccccc1")
"False"
>>> answer_label("O=C1CC2OCC=C3CN4CC[C@]56c7ccccc7N1C5C2[C@H]3C[C@H]46 (stereo partly specified)")
"False"
>>> answer_label("C[C@]12C=CC(=O)C=C1CC[C@@H]1C2CC[C@]2(C)OC(=O)CCC12 (stereo partly specified)")
"False"

---

# System: TAB109
# assay.name: qHTS profiling for inhibitors of Plasmodium falciparum proliferation (AID 504749); also: nearly all actives have a fitted effect of over 60% in size
# measurement.context: P. falciparum in erythrocytes, SYBR Green DNA, 72 h; series mostly up to 28.7 µM
# Method: NIH National Institute of Allergy and Infectious Diseases [NIAID] NIH Chemical Genomics Center [NCGC] […] Because mature erythrocytes lack DNA, only Plasmodium-derived DNA is detected. NCGC Assay Protocol Summary: The SYBR Green viability assay was adapted from a method described previously (Plouffe et al., 2008). […] The following morning, fluorescence intensity at 485(14) nm excitation and 535(25) nm emission wavelengths was measured on an EnVision (Perkin Elmer) plate reader. […]
Records with an inconclusive call do not appear. Calls of active or inactive are those of the source. Calls come from the whole dose curve; as a rule, active = well fitted inhibition curve with a large enough effect; inconclusive = small, poorly fitted or top-dose-only effect; inactive = flat fitted curve, though single readings scatter.
outcome.measure: outcome

>>> endpoint_result("C#CCN1CC(=O)N(COC(=O)[C@@H]2[C@@H](C=C(C)C)C2(C)C)C1=O")
"inactive"
>>> endpoint_result("CCCC(C)C1(CC)C(=O)NC(=S)NC1=O (stereo unspecified)")
"inactive"
>>> endpoint_result("Nc1nc(O)c(-c2ccccc2)o1")
"inactive"
>>> endpoint_result("CN1C2CCC1C(C(=O)O)C(OC(=O)c1ccccc1)C2 (stereo unspecified)")
"inactive"
>>> endpoint_result("OCC(O)[C@H]1O[C@@H]2O[C@H](C(Cl)(Cl)Cl)O[C@@H]2[C@H]1O (stereo partly specified)")
"inactive"
>>> endpoint_result("C[C@]12C=CC(=O)C=C1CC[C@@H]1C2CC[C@]2(C)OC(=O)CCC12 (stereo partly specified)")
"inactive"
